// reported log10 IC50 per item
study_target: hA2a/CHO (Homo sapiens (Human), UniProt P29274)
Sequence (P29274 whole entry): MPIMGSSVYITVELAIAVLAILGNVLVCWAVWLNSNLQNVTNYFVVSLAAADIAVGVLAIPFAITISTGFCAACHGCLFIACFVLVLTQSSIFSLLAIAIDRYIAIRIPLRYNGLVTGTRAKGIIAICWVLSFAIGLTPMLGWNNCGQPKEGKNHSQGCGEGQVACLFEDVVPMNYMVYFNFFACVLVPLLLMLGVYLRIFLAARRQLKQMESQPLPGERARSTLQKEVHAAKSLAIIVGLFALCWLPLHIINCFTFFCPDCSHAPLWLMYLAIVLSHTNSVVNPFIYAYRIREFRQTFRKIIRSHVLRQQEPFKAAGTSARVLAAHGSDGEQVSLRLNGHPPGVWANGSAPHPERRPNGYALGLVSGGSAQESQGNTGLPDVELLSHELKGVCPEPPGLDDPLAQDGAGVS
measurement_notes: cAMP inhibition assay in hA2a/CHO cells, 10 μM adenosine;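 note: compounds added to cells 30 min ahead of adenosine, then a further 30 min at 37 °C with adenosine before cAMP detection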
Assay type: cell-based
details: read-out: cAMP & FLIPR IC50 (nM) hA2a
measured_metric: log10 IC50 (log10 of the value in nM)

                                    compound                              study_target  observed_measurement
 0  Cc1cnc2ccc(-c3nc(C(=O)NCC4CC4)c(N)nc3-c3ncco3)cn12 [Example 155]  hA2a/CHO (Homo sapiens (Human), UniProt P29274)                 -0.22
 1  Cc1cc(-c2nc(C(=O)NCc3ccccc3C(F)(F)F)c(N)nc2-c2ccc(F)cc2)cc(C)n1 [Example 53]  hA2a/CHO (Homo sapiens (Human), UniProt P29274)                  1.78
 2  CC(NC(=O)c1nc(-c2ccc(=O)n(C)c2)c(-c2ncco2)nc1N)c1c(F)cccc1F (single isomer, unassigned) [Example 40]  hA2a/CHO (Homo sapiens (Human), UniProt P29274)                  1.71
 3  Cc1cnc2ccc(-c3nc(C(=O)NC(C)C)c(N)nc3-c3ncco3)cn12 [Example 133]  hA2a/CHO (Homo sapiens (Human), UniProt P29274)                  0.77
 4  Cc1cnc2ccc(-c3nc(C(=O)NCc4cccc(N5C[C@@H]6C[C@H]5CN6C)n4)c(N)nc3-c3ncco3)cn12 [Example 283]  hA2a/CHO (Homo sapiens (Human), UniProt P29274)                  0.53
 5  Cc1cnc2ccc(-c3nc(C(=O)NCCS(C)(=O)=O)c(N)nc3-c3ccc(F)cc3)cn12 [Example 150]  hA2a/CHO (Homo sapiens (Human), UniProt P29274)                  0.53
 6  Cc1cc(-c2nc(C(=O)NCc3ccccc3C)c(N)nc2-c2ccc(F)cc2)cc(C)n1 [Example 81]  hA2a/CHO (Homo sapiens (Human), UniProt P29274)                  1.99
 7  Cc1cnc2ccc(-c3nc(CNC(=O)[C@H]4CCOC4)c(N)nc3-c3ccc(F)cc3)cn12 [Example 264]  hA2a/CHO (Homo sapiens (Human), UniProt P29274)                  1.40
 8  COCCNC(=O)c1nc(-c2ccc3ncc(C)n3c2)c(-c2ncco2)nc1N [Example 147]  hA2a/CHO (Homo sapiens (Human), UniProt P29274)                  0.58
 9  Cc1cnc2ccc(-c3nc(C(=O)NC[C@@H](C)O)c(N)nc3-c3ncco3)cn12 [Example 145]  hA2a/CHO (Homo sapiens (Human), UniProt P29274)                  1.51
10  Cc1cnc2ccc(-c3nc(C(=O)NCC4CCC(=O)N4C)c(N)nc3-c3ncco3)cn12 (racemic) [Example 212]  hA2a/CHO (Homo sapiens (Human), UniProt P29274)                  1.53
11  Cn1cnc2ccc(-c3nc(C(=O)NCc4ncccc4NCCO)c(N)nc3-c3ccc(F)cc3)cc21 [Example 117]  hA2a/CHO (Homo sapiens (Human), UniProt P29274)                 -0.15
12  COC1CCOC1CNC(=O)c1nc(-c2ccc3ncc(C)n3c2)c(-c2ncco2)nc1N (single isomer, unassigned) [Example 279]  hA2a/CHO (Homo sapiens (Human), UniProt P29274)                  0.15
13  COc1cccc(F)c1CNC(=O)c1nc(-c2cc(C)nc(C)c2)c(-c2ccc(F)cc2)nc1N [Example 90]  hA2a/CHO (Homo sapiens (Human), UniProt P29274)                  0.60
14  Cc1cnc2ccc(-c3nc(C(=O)NCC4CCOC4)c(N)nc3-c3ccccn3)cn12 (single isomer, unassigned) [Example 304]  hA2a/CHO (Homo sapiens (Human), UniProt P29274)                  0.91
